- assay-text: Half life in mouse at 0.5 mg/kg, iv
- Assay type: ADME, organism-based
- assay-setup: in vivo
observable: half-life (h)
Give bare numbers, in h.

// half-life lookup, compound = C[C@H](c1ccc(Cl)cc1Cl)n1nc(C#N)c2ncc(N3CC([C@H]4CCCN(CCO)C4)C3)nc21 , result: 6.9

---

- assay-text: Metabolic stability in human hepatocytes assessed as parent compound remaining at 1 uM after 60 mins by LC-MS/MS analysis
- Assay type: ADME, cell-based, Hepatocyte
- assay-setup: read-out: Stability
// classify: if (remaining at 1 h, 1 µM < 90%) t else f

chemical-structure: CC(=O)NCCN1CCC[C@H](C2CN(c3cnc4c(C)nn([C@H](C)c5ccc(Cl)cc5Cl)c4n3)C2)C1
category-label: f
--
chemical-structure: Cc1nn([C@H](C)c2ccc(Cl)cc2Cl)c2nc(N3CC([C@H]4CCCN(CCO)C4)C3)cnc12
category-label: t
--
chemical-structure: C[C@H](c1ccc(Cl)cc1Cl)n1nc(C(N)=O)c2ncc(N3CC([C@H]4CCCN(CCO)C4)C3)nc21
category-label: f

Is it true that remaining at 1 h, 1 µM reported for Cc1nn([C@H](C)c2ccc(Cl)cc2Cl)c2nc(N3CC([C@H]4CCCN(CCNS(C)(=O)=O)C4)C3)cnc12 is less than 90%?
t
